- TARGET_UNDER_TEST: pre-existing anti-scFv903 antibodies in human serum H40 (human)
- EXPERIMENT_DESCRIPTION: competition ADA bridging ELISA
MEASURED_PROPERTY: signal change in competition ELISA (% reduction in OD) (%)
Answer format: numeric, % implied, no suffix.

Briefly, signal change in competition ELISA (% reduction in OD) measured for scFv 961 (scFv) scFv: EIVMTQSPSTLSASVGDRVIITCQASEIIHSWLAWYQQKPGKAPKLLIYLASTLASGVPSRFSGSGSGAEFTLTISSLQPDDFATYYCQNVYLASTNGANFGQGTKLTVLGGGGGSGGGGSGGGGSGGGGSEVQLVESGGGSVQPGGSLRLSCTASGFSLTDYYYMTWVRQAPGKGLEWVGFIDPDDDPYYATWAKGRFTISRDTSKNTVYLQMNSLRAEDTATYYCAGGDHNSGWGLDIWGQGTTVTVSS : -2
